experiment.summary: gradient 5% acetonitrile 3 min, to 50% in 2 min, to 85% in 15 min, held 3 min, 100 µL/min
measurement.context: column: Zorbax Extend-C18 2.1 x 50 mm; eluents: water / acetonitrile, 0.1% formic acid
// returns not met unless RP-LC retention time is strictly below 900 s, in which case met

These solved cases illustrate the format of a correct answer.
>  <molecule>
CCc1ccc(S(=O)(=O)N2CCC3(CC2)NCCN=C3NCc2ccccc2C)cc1

>  <group>
met

$$$$
>  <molecule>
COc1ccc(NC(=O)c2cc(C)n3nccc3n2)cc1Cl

>  <group>
not met

$$$$
>  <molecule>
Cc1nc(C#Cc2cccnc2)cs1

>  <group>
met

$$$$
>  <molecule>
COc1ccc(CN2CN=C(Nc3nc(C)c4cc(C)ccc4n3)NC2)cc1

>  <group>
met

$$$$
>  <molecule>
COc1cc(CNC(=O)c2cccc3c2CCN3C(=O)C2CC2)cc(OC)c1

>  <group>
met

$$$$

Task: Would you kindly verify if RP-LC retention time of Cc1ccc(N2N=C(C(=O)N3CCCC3)S(=O)(=O)c3cccnc32)cc1 is strictly less than 900 s?
Result: met

Task: I wonder whether Cc1ccccc1NC(=O)CSc1ccc(N2CCCC(C(=O)NC3CC3)C2)nn1 (stereo not drawn) has RP-LC retention time below 900 s. Can you tell?
Result: met

Task: Regarding CC(C)(C)c1noc(-c2ccc(=O)n(Cc3cccc(F)c3)n2)n1 , kindly confirm whether its RP-LC retention time is beneath 900 s.
Result: not met

Task: Could you please tell me whether RP-LC retention time recorded for Cc1ccc(CNS(=O)(=O)c2cc(-c3[nH]ncc3C(=O)N3CCCC3)oc2C)o1 is less than 900 s?
Result: met

Task: is_below(RP-LC retention time, 900 s) for O=C(c1cccs1)N1CCC(Cn2c(C(F)(F)F)nc3ccccc32)CC1 ?
Result: met

###

experiment.summary: gradient 5% acetonitrile 3 min, to 50% in 2 min, to 85% in 15 min, held 3 min, 100 µL/min
measurement.context: column: Zorbax Extend-C18 2.1 x 50 mm; eluents: water / acetonitrile, 0.1% formic acid
Recorded RP-LC retention time by entry

Consider the following illustrative entries.
>  <compound>
O=c1ccc(-c2ccc(F)cc2)nn1CCc1nc(-c2ccc(Br)cc2)no1

>  <value.observed>
1110 s

$$$$
>  <compound>
COc1ccc(-c2nnc(-c3ccc(C)c(S(=O)(=O)N4CCOCC4)c3)o2)cc1OC

>  <value.observed>
844 s

$$$$
>  <compound>
O=C(CN1CCc2ccccc2C1C(=O)N1CCCCC1)NCc1ccccn1 (stereo unspecified)

>  <value.observed>
755 s

$$$$
>  <compound>
Cc1ccc(-c2csc(NC(=O)Cc3csc(-c4ccccc4)n3)n2)cc1

>  <value.observed>
1210 s

$$$$

Task: Entry under review: CCN1c2ccc(C)cc2C(=O)NC12CCN(C(=O)c1ccc(Br)cc1)CC2 . Reported RP-LC retention time?
Result: 902 s

Task: Quick one: RP-LC retention time for CCOc1ccc(-c2noc(CN3C(=O)COc4ccc(S(=O)(=O)CC)cc43)n2)cc1 ?
Result: 944 s

###

# RP-LC retention time listing for each entry below
experiment.summary: gradient 5% acetonitrile 3 min, to 50% in 2 min, to 85% in 15 min, held 3 min, 100 µL/min
measurement.context: column: Zorbax Extend-C18 2.1 x 50 mm; eluents: water / acetonitrile, 0.1% formic acid
Express the result in s but write the number alone.

Below, each entry is followed by its recorded RP-LC retention time result.
>  <molecule>
Cc1cccc(Sc2nccnc2N2CCC(C(=O)NCCCc3ccccc3)CC2)c1

>  <measurement.label>
RP-LC retention time

>  <reading.unit>
s

>  <value.observed>
1140

$$$$
>  <molecule>
CCc1ccc(-c2noc(Cn3c(=O)n(-c4ccccc4)c(=O)c4sccc43)n2)cc1

>  <measurement.label>
RP-LC retention time

>  <reading.unit>
s

>  <value.observed>
1090

$$$$
>  <molecule>
O=C(O)c1nnn(-c2ccc(Cl)cc2)c1-c1ccncc1

>  <measurement.label>
RP-LC retention time

>  <reading.unit>
s

>  <value.observed>
663

$$$$
>  <molecule>
Cc1ccc(C(=O)N2CCCCC2c2nncn2CC2CC2)s1 (stereo not given)

>  <measurement.label>
RP-LC retention time

>  <reading.unit>
s

>  <value.observed>
740

$$$$
>  <molecule>
COc1c2c(c(OC)c3c1c(=O)c1ccccc1n3C)OCO2

>  <measurement.label>
RP-LC retention time

>  <reading.unit>
s

>  <value.observed>
767

$$$$
>  <molecule>
COc1cccc(CNC(=O)C2CCN(S(=O)(=O)c3ccc4c(c3)NC(=O)C(C)O4)CC2)c1 (stereo not given)

>  <measurement.label>
RP-LC retention time

>  <reading.unit>
s

>  <value.observed>
757

$$$$

Task: Data request, read-out RP-LC retention time, for Cc1ccc(NC(=O)Cn2cnc3nc(N4CCCC(C(=O)NC5CC5)C4)sc3c2=O)cc1C (stereo not given)
Result: 693

Task: Using the record for CN1CCN(CCNC(=O)Cn2c(=O)c3cccn3c3ccc(F)cc32)CC1 , report its RP-LC retention time.
Result: 578

Task: Field request: RP-LC retention time | item: CCOc1ccccc1CN1CC(CO)C2(CCNCC2)C1 (stereo not given)
Result: 520

Task: # get_value(readout='RP-LC retention time', item= Cc1ccc2nc(NC(=O)Cn3c(=O)n(C(C)C)c4ccc(-c5noc(C)n5)cc43)sc2c1 )
Result: 948

Task: # query: RP-LC retention time of entry CCC(=O)N(CC(=O)N1CCc2sccc2C1COc1ccccc1OC)C1CC1 (stereo not given)
Result: 871

Task: For Cn1nc(C(=O)N2CCN(c3ccccc3Cl)CC2)ccc1=O , what is its reported RP-LC retention time?
Result: 727

Task: Return reported RP-LC retention time; argument: O=C(NCCCn1ccnc1)C(=O)NC1CCCCC1
Result: 545

Task: // query RP-LC retention time value for entry CC(C)CC(=O)Nc1ccc(-n2cnc(C(=O)N3CCCC(C)C3)c2)nc1 (stereo not given)
Result: 756

Task: Could you share which RP-LC retention time value was measured for CSc1nc2ccc(NS(=O)(=O)c3ccc(Br)s3)cc2s1 ?
Result: 994
